Would you mind telling me the reported activity at 0.025 µg/mL of each entry?
System: Mouse Embryo Fibroblasts
PROTOCOL_SUMMARY: Proliferation of uninfected mouse embryo fibroblasts (MEF)
Type: cell-based
APPLIED_CONDITIONS: Mus musculus, Fibroblast, 72 h; dose 0.0250 μg/ml; uninfected MEF, 3 days treatment; read-out: MEF No. of cells
Kindly provide the numeric value in % only, without the unit symbol.

State the recorded activity at 0.025 µg/mL for this entry: COc1cccc2c1C(=O)c1c(O)c3c(c(O)c1C2=O)C[C@@](O)(C(=O)CN1CCOCC1)C[C@@H]3O[C@H]1C[C@H](N)[C@H](O)[C@H](C)O1
68

State the recorded activity at 0.025 µg/mL for this entry: COc1cccc2c1C(=O)c1c(O)c3c(c(O)c1C2=O)C[C@@](O)(C(=O)CN1CCN(CCO)CC1)C[C@@H]3O[C@H]1C[C@H](N)[C@H](O)[C@H](C)O1
64

State the recorded activity at 0.025 µg/mL for this entry: COc1cccc2c1C(=O)c1c(O)c3c(c(O)c1C2=O)C[C@@](O)(C(=O)CN1CCCCC1)C[C@@H]3O[C@H]1C[C@H](N)[C@H](O)[C@H](C)O1
71

State the recorded activity at 0.025 µg/mL for this entry: COc1cccc2c1C(=O)c1c(O)c3c(c(O)c1C2=O)C[C@@](O)(C(=O)CN(CCO)CCO)C[C@@H]3O[C@H]1C[C@H](N)[C@H](O)[C@H](C)O1
95

State the recorded activity at 0.025 µg/mL for this entry: COc1cccc2c1C(=O)c1c(O)c3c(c(O)c1C2=O)C[C@@](O)(C(=O)CN1CCN(C)CC1)C[C@@H]3O[C@H]1C[C@H](N)[C@H](O)[C@H](C)O1 [14-[N-(N'-methyl)-piperazino]-daunomycin]
64

---

Would you mind telling me the reported Toxic Deaths of each entry?
System: ascites Sarcoma 180
PROTOCOL_SUMMARY: Antitumor activity and toxicity on ascites Sarcoma 180 in CD 1 mice
Type: in vivo
APPLIED_CONDITIONS: 25 mg./kg. i.p.; deaths/total

State the recorded Toxic Deaths for this entry: COc1cccc2c1C(=O)c1c(O)c3c(c(O)c1C2=O)C[C@@](O)(C(=O)CN1CCOCC1)C[C@@H]3O[C@H]1C[C@H](N)[C@H](O)[C@H](C)O1
0/17

State the recorded Toxic Deaths for this entry: COc1cccc2c1C(=O)c1c(O)c3c(c(O)c1C2=O)C[C@@](O)(C(=O)CN1CCN(CCO)CC1)C[C@@H]3O[C@H]1C[C@H](N)[C@H](O)[C@H](C)O1
0/10

State the recorded Toxic Deaths for this entry: COc1cccc2c1C(=O)c1c(O)c3c(c(O)c1C2=O)C[C@@](O)(C(=O)CN1CCCCC1)C[C@@H]3O[C@H]1C[C@H](N)[C@H](O)[C@H](C)O1
0/10

State the recorded Toxic Deaths for this entry: COc1cccc2c1C(=O)c1c(O)c3c(c(O)c1C2=O)C[C@@](O)(C(=O)CN(CCO)CCO)C[C@@H]3O[C@H]1C[C@H](N)[C@H](O)[C@H](C)O1
0/20

State the recorded Toxic Deaths for this entry: COc1cccc2c1C(=O)c1c(O)c3c(c(O)c1C2=O)C[C@@](O)(C(=O)CN1CCN(C)CC1)C[C@@H]3O[C@H]1C[C@H](N)[C@H](O)[C@H](C)O1 [14-[N-(N'-methyl)-piperazino]-daunomycin]
0/10
